Entries and their growth
Tested on: BT-549 breast
Assay: NCI-60 one-dose screen, 48 h (100 = growth as untreated, 0 = no growth, -100 = all killed)
Conditions: 10 µM unless noted
Compounds without any hit were thinned out: in the full panel of roughly 83,000, 20% have a hit. The source made the active and inactive calls. Rule for the calls: active = growth percent below 10; inactive = the rest.

In the examples that follow, each entry is paired with its recorded growth.
>>> value_measured("Cn1c(-c2c(N)n(Cc3ccc(C(F)(F)F)cc3)c3nc(C#N)c(C#N)nc23)nc2ccccc21")
"7.95% (active)"
>>> value_measured("COC1=CC(=O)C[C@@H](C)[C@]12Oc1c(Cl)c(OC)cc(OC)c1C2=O")
"78.3% (inactive)"
>>> value_measured("O=C(/C=C/c1ccco1)c1ccc(Nc2nc(Nc3ccc(F)cc3)nc(Nc3ccc(Cl)cc3)n2)cc1")
"78.7% (inactive)"
>>> value_measured("CC1=C([Se]CC(OC(=O)[C@@H](CO)NC(=O)OC(C)(C)C)C(=O)NC(C)(C)C)C(=O)c2ccccc2C1=O (stereo partly drawn)")
"-100% (active)"
>>> value_measured("O=c1c2cc(F)ccc2sc2c(Nc3cccnc3)nc3ccccc3c12")
"98.7% (inactive)"

Value sought: growth, system BT-549 breast, item `CN(C)c1ccc(/C=C/C(=O)c2cccc(Nc3nc(Nc4ccccc4)nc(Nc4ccccc4)n3)c2)cc1` . Result: 99.3% (inactive)

Value sought: growth, system BT-549 breast, item `COc1ccc(NC(=O)CSc2nc(C)c(C(C)=O)n2-c2ccc(Cl)cc2)cc1` . Result: 80.4% (inactive)

---

System: SN12C renal
Assay: NCI-60 one-dose screen, 48 h
Conditions: 10 µM unless noted
The panel holds about 83,000 compounds, 20% with a hit somewhere; the sample as a whole holds those more often. Activity calls are given as the source filed them. How the source made its calls: active means growth percent below 10; inactive means the rest.
Valid outcomes are listed here; reply with one: active, inactive

Check out these entries, answers already filled in.
>>> qualitative_label("COc1ccc(N=C(c2ccccc2)C2C(=O)c3ccccc3C2=O)cc1")
"inactive"
>>> qualitative_label("c1csc(-c2c3ccc(=[N+]4CCCCC4)cc-3oc3cc(N4CCCCC4)ccc23)c1")
"active"
>>> qualitative_label("O=c1cc(C2NNC(=S)N2)c2ccc3ccccc3c2o1 (stereo not given)")
"inactive"

Problem: Field: outcome | Entry: `CCOc1c(C#N)nnc2c(C#N)c(NC(=O)c3ccccc3)nn12`
Result: inactive

Problem: Field: outcome | Entry: `COC1=CC(=O)C[C@@H](C)[C@]12Oc1c(Cl)c(OC)cc(OC)c1C2=O`
Result: inactive

Problem: Field: outcome | Entry: CCCCOc1nc2ccccc2cc1C1CNC(=O)c2ccccc2N1 (stereo not given)
Result: inactive

Problem: Field: outcome | Entry: `COc1ccc2c(c1)O/C(=C\c1cccc(OCC(=O)Nc3nc(C)c(C)s3)c1)C2=O`
Result: inactive

Problem: Field: outcome | Entry: `O=C(/C=C/c1ccc(Cl)nc1)c1ccc(Cl)cc1Cl`
Result: inactive

Problem: Field: outcome | Entry: `Clc1cccc(Cl)c1/C=C/c1cc(/C=C/c2c(Cl)cccc2Cl)[nH]n1`
Result: inactive

Problem: Field: outcome | Entry: `Cn1c(-c2c(N)n(Cc3cccnc3)c3nc(C#N)c(C#N)nc23)nc2ccccc21`
Result: inactive

---

Tested on: SNB-19 CNS
Experiment: NCI-60 one-dose screen, 48 h
Conditions: 10 µM unless noted
About 83,000 compounds went through this panel and 20% of them were active in at least one assay; those are over-represented in the sample as a whole. The source made the active and inactive calls. The calls were made as follows: active = growth percent below 10; inactive = the rest.
Valid outcomes are listed here; reply with one: active, inactive

Check out these entries, answers already filled in.
>>> qualitative_label("Cn1ccc2c(c1=O)C(=O)c1nccc3c1c-2nc1ccccc13")
"active"
>>> qualitative_label("Cc1c(C(=O)N[C@@H](Cc2ccccc2)C(=O)C(=O)NCCc2ccccc2)[nH]c2ccccc2c1=O")
"inactive"
>>> qualitative_label("CCCc1cc2c(=O)c(C(=O)OC)c[nH]c2cc1N(CC)CC")
"inactive"

Problem: Field: outcome | Entry: N#CC1=C(/N=C/c2ccccc2)Oc2c(ccc3ccccc23)C1c1ccccc1 (stereo not given)
Result: inactive

Problem: Field: outcome | Entry: `COc1cccc(-c2nc3sccn3c2-c2ccnc(NCCNS(=O)(=O)c3cccc(Cl)c3)c2)c1`
Result: inactive

Problem: Field: outcome | Entry: `O=C1/C(=C/c2ccc(F)cc2)C=C(c2ccccc2)N1CCc1ccccc1`
Result: inactive

Problem: Field: outcome | Entry: `COc1cc(/C=C/C(=O)c2c(C)nc3ccccc3c2C)ccc1OCCCN1CCN(C(=O)c2ccco2)CC1`
Result: inactive

Problem: Field: outcome | Entry: `C#Cc1cccc(NC(=O)c2ccc(NC(=O)CCl)cc2)c1`
Result: active

Problem: Field: outcome | Entry: O=c1cc(C2NNC(=S)N2)c2ccc3ccccc3c2o1 (stereo not given)
Result: inactive

Problem: Field: outcome | Entry: `COc1ccc(/C=C/c2c(C(=O)/C=C/c3cccs3)c(C)nc3ccccc23)cc1`
Result: inactive

Cited source for all entries: PubChem BioAssay (NCI)
